- ASSAY_PROTOCOL: ATG_DR4_LXR_CIS: Attagene CIS-FACTORIAL HepG2 Assay for human Liver X Receptor (LXR), DR4 submotif (AID 2282929)
- EXPERIMENTAL_CONDITIONS: HepG2 Attagene DR4 cis-reporter, mRNA transcription; actives raise or lower the signal
- Experimental: ATG_CIS is a cell-based, multiplexed-readout assay that uses HepG2, a human liver cell line, with measurements taken at 24 hours after chemical dosing in a 24-well plate.ATG_DR4_LXR_CIS is one of 52 assay component(s) measured or calculated from the ATG_CIS assay. […] This assay endpoint, ATG_DR4_LXR_CIS, was analyzed with bidirectional fitting relative to DMSO as the negative control and baseline of activity. […]
Active and inactive are the calls of the source. How the source made its calls: active means hit-call score of the fitted dose curve at least 0.9, where 1 is the maximum; inactive means score below 0.9.
Possible outcomes: Y = active, N = inactive

compound=COC(=O)/C=C\C(=O)O classification=N
compound=CC/C=C\CCOC(=O)CCCCC classification=N
compound="CC(CC=O)c1ccccc1 (stereo not given)" classification=Y
compound=CC(C)=CCC/C(C)=C\C#N classification=N
compound=CCCC(=O)OCc1ccccc1 classification=N
compound=CC1=Nc2ccc3ccccc3c2C1(C)C classification=N
compound=COc1ccc(C(Cl)=C(c2ccc(OC)cc2)c2ccc(OC)cc2)cc1 classification=N
compound=O=C1C=CC(=O)O1 classification=N
compound=CCCCCCCCCCC=CC#N classification=Y
compound=CCCCCCCCCCCSCC(=O)O classification=Y
compound=CCCCCCOc1cc(C)c(O)c(C)c1C classification=N
compound=O=C1CCCN1CCO classification=N
compound=N#[N+]c1ccc2c(S(=O)(=O)[O-])cccc2c1O classification=N
compound="CCC(C)(C)C1CCCCC1OC(C)=O (stereo not given)" classification=N
compound=CC(C)C1=CC2=CC[C@@H]3[C@](C)(CCC[C@@]3(C)C(=O)O)[C@H]2CC1 classification=Y
compound=NC(=O)NNC(N)=O classification=N
compound="CCCCC(CC)CCC(CC(C)C)OS(=O)(=O)O (stereo not given)" classification=N
compound=CNC(=S)N(C)C classification=N
compound="CCC(Cc1ccccc1)(C(=O)c1ccc(N2CCOCC2)cc1)N(C)C (stereo not given)" classification=N
compound="CC(C)(C)C1CCCCC1=O (stereo not given)" classification=N
compound=O=S1(=O)OC(c2ccc(O)cc2)(c2ccc(O)cc2)c2ccccc21 classification=N
compound=CC(C)CCCCCOC(=O)CCS classification=N
compound=CN(C)c1ccc(N=Nc2ccccc2C(=O)O)cc1 classification=Y
compound=N#CCc1ccc(Cl)cc1Cl classification=N
compound=Cc1ccc(OC(=O)CC(C)C)cc1 classification=N
compound=CC(=O)OCCC1CCCCC1 classification=N
compound=CCN(CCO)c1cccc(C)c1 classification=N
compound=C(=CC=Nc1ccccc1)C=CNc1ccccc1 classification=N
compound="c1cc(C(c2ccc(OCC3CO3)cc2)C(c2ccc(OCC3CO3)cc2)c2ccc(OCC3CO3)cc2)ccc1OCC1CO1 (stereo not given)" classification=Y
compound=COCCCOCCCOC classification=N
